Assignment: determine reported inhibition for the given compounds.
assay: inhibitors of HIV fusion peptide binding, primary screen, biochemical, uHTS, fluorescence dequenching (AID 1986); conditions: cell-free peptide binding, 30 min, at 20 µM, stronger effect = higher value
Among all 290,000 compounds or so, about 890 (0.31%) were called active. Shown is part of a subset that was picked to be rich in actives.
One number for each entry, in %.

Input smiles: COc1ccc(C(=O)/C(C#N)=N/Nc2cccc([N+](=O)[O-])c2)cc1
inhibition, %: 20.6

Okay, here is my list. What is inhibition for each of these?
1. Cc1cc2c(cc1S(=O)(=O)N(C)Cc1ccccc1)OCC(=O)N2
2. COc1cccc(-c2c(C(=O)N/N=C/c3cccnc3)nnn2-c2nonc2N)c1

[-2, -0.9]

###

assay: inhibitors of HIV fusion peptide binding, primary screen, biochemical, uHTS, fluorescence dequenching (AID 1986); conditions: cell-free peptide binding, 30 min, at 20 µM, stronger effect = higher value
The whole screen tested about 290,000 compounds, of which about 890 (0.31%) were called active. The sample holds actives, similar compounds and a random draw of the others, so the mix is not that of the screen.
Assignment: determine reported inhibition for the given compounds.
Give bare numbers, in %.

Compound: CCOC(=O)c1c(CC(C)C)csc1/N=C/C1=C(O)CCCC1=O
Property name: inhibition
Units of measure: %
Reported: 21.5

Okay, here is my list. What is inhibition for each of these?
1. COc1cc(/C=N/NC(=S)NCCN2CCOCC2)cc(OC)c1OC
2. O=C(CNC(=O)c1ccco1)OCC(=O)c1ccc([N+](=O)[O-])cc1
3. N#Cc1c(N)sc(=S)c2c1CCCCC2
4. N#Cc1c(N2CCCCC2)nc(N2CCCCC2)c2c1CCN(Cc1ccccc1)C2
5. O=C(Nc1cccc(C(F)(F)F)c1)/C(=C/c1ccco1)NC(=O)c1cccs1
6. CCOC(=O)c1c(-c2ccc(OC)cc2)csc1/N=C/C1C(=O)CCCC1=O
7. CNC(=O)c1c(C)[nH]c(=S)c(C#N)c1-c1ccco1

1: -0.8; 2: -0.7; 3: 50; 4: 8.7; 5: 15.1; 6: 52.3; 7: 4.3

Okay, here is my list. What is inhibition for each of these?
1. N#Cc1c(N)sc2c1CCCCCC2
2. CN1CC=C2C(C#N)=C(N)C(C#N)(C#N)[C@H](c3cccs3)[C@H]2C1
3. CCC(CCC(=O)Nc1cccc(C(=O)O)c1)C(=O)O (stereo not given)
4. Cc1ccccc1NC(=O)c1c(C)[nH]c(=S)c(C#N)c1-c1ccco1
5. CCOC(=O)c1c(/N=C/C2=C(O)CC(C)(C)CC2=O)sc(C)c1C

-2
25.9
-0.2
66.5
1.6

Okay, here is my list. What is inhibition for each of these?
1. CCOC(=O)c1cnc2c(ccc3ccccc32)c1NCCN(C)C
2. CCOC(=O)c1c(/N=C/C2=C(O)CCCC2=O)sc2c1CCCC2

[-0.1, -0.2]

###

assay: inhibitors of HIV fusion peptide binding, primary screen, biochemical, uHTS, fluorescence dequenching (AID 1986); conditions: cell-free peptide binding, 30 min, measured here: repeat confirmation average inhibition, at 18.6 µM, stronger effect = higher value
Among all 290,000 compounds or so, about 890 (0.31%) were called active. Only a selection was taken, and actives are over-represented in it overall.
Use label 1 when the recorded inhibition is no lower than 60%; use label 0 when it is lower.

Known results for molecules:
Input smiles: O=C(/C=C/c1ccco1)Nc1cccc(C(=O)Nc2ccccc2C(=O)O)c1
Assigned category: label 0
//
Input smiles: CCCCCCc1cc2cc(-c3nnc(-c4cc(OC)c(OC)c(OC)c4)o3)c(=O)oc2cc1O
Assigned category: label 1
//
Input smiles: Cc1cc(O)c(C=Nc2ccc(N3CCOCC3)cc2)c(C)c1Cl
Assigned category: label 1
//
Input smiles: O=C1CCC/C(=N/NC(=O)c2sc3ccccc3c2Cl)C1
Assigned category: label 0
//
Input smiles: COc1ccc(/C=C2\SC(c3ccc(C)cc3)=NC2=O)cc1OC
Assigned category: label 1
//
Input smiles: COc1ccc(N=Cc2cc(Cc3ccccc3Cl)cc([N+](=O)[O-])c2O)cc1OC
Assigned category: label 0
//
Input smiles: O=C(/C=C/c1ccco1)Nc1cccc(NC(=O)/C=C/c2ccco2)n1
Assigned category: label 0
//
Input smiles: O=C(CCN1C(=O)/C(=C/c2ccc(Cl)cc2)SC1=S)Nc1cccc(C(=O)O)c1
Assigned category: label 0
//
Input smiles: Cc1ccc(O)c(N=Cc2cc(Cc3ccccc3)cc([N+](=O)[O-])c2O)c1
Assigned category: label 0

As a next step, examine the molecule that follows.
Evaluate `O=C(O)CN1C(=O)/C(=C/c2ccc(SCc3ccccc3)o2)SC1=S` : inhibition at minimum 60%?
label 1
